Recorded pIC50 values for a group of molecules are listed next.
- test.target: human Src enzyme (Homo sapiens, UniProt P12931)
- Construct: purchased Carna Biosciences, Inc. 08-173
- Sequence (P12931 whole entry): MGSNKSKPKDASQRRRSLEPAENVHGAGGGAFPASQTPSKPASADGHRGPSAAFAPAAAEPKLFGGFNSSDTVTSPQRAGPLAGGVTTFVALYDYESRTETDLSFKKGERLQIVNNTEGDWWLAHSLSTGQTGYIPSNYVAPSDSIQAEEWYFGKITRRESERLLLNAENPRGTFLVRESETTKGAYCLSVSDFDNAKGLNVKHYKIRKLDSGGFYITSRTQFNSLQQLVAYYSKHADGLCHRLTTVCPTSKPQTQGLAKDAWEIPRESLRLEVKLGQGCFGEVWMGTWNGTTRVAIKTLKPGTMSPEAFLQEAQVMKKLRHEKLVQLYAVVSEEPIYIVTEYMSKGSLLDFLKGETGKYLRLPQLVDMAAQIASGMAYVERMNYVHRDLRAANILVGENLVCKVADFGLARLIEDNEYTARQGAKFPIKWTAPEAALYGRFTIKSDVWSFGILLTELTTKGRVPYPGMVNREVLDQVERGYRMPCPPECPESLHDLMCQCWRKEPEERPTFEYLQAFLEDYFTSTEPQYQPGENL
- test.details: Src enzyme inhibitory activity (time-resolved fluorometry, biotinylated peptide phosphorylation)
- Type: biochemical
- measurement.setup: biotinylated peptide phosphorylation, read-out: SRC_IC50
pIC50: −log10 of the molar value.

{"molecule": "Cc1cc2cc(C(=O)c3cnn(-c4cnc(Oc5ccc(F)cc5)cc4C)c3N)[nH]c2cc1N1CCCS1(=O)=O [Example 4-2-119]", "pIC50": 7.15}
{"molecule": "Cc1cc(Oc2c(F)cccc2F)ncc1-n1ncc(C(=O)c2cc3cc(OC(F)F)c(N4C(=O)NC(C)(C)C4=O)cc3[nH]2)c1N [Example 4-23-034]", "pIC50": 7.27}
{"molecule": "Cc1cc(Oc2ccccc2F)ncc1-n1ncc(C(=O)c2cc3cc(OC(F)F)c(NC4COC4)cc3[nH]2)c1N [Example 4-23-013]", "pIC50": 7.40}
{"molecule": "Cc1cc(Oc2ccccc2F)ncc1-n1ncc(C(=O)c2cc3cc(OCC(F)F)c(N4CCOC4=O)cc3[nH]2)c1N [Example 4-25-016]", "pIC50": 7.89}

###

Each record here notes measured IC50.
- test.target: human Src enzyme (Homo sapiens, UniProt P12931)
- Construct: purchased Carna Biosciences, Inc. 08-173
- test.details: Src enzyme inhibitory activity (time-resolved fluorometry, biotinylated peptide phosphorylation)
- Assay type: biochemical
- measurement.setup: biotinylated peptide phosphorylation, read-out: SRC_IC50
measurement.label: IC50

{"compound": "Cc1cc2cc(C(=O)c3cnn(-c4ccc(Oc5ccccc5F)cc4C)c3N)[nH]c2cc1NS(=O)(=O)N1CCOCC1 [Example 4-2-105]", "measurement.label": "IC50", "result": "100 nM"}
{"compound": "Cc1cc(Oc2ccccc2F)ccc1-n1ncc(C(=O)c2cc3cc(OCC(F)F)c(NS(=O)(=O)c4cccnc4)cc3[nH]2)c1N [Example 5-1-418]", "measurement.label": "IC50", "result": "78 nM"}
{"compound": "Cc1cc(Oc2c(F)cccc2F)ncc1-n1ncc(C(=O)c2cc3cc(F)c(N4CC5(CCCC5)NS4(=O)=O)cc3[nH]2)c1N [Example 5-1-399]", "measurement.label": "IC50", "result": "250 nM"}
{"compound": "COc1cccc(S(=O)(=O)Nc2cc3[nH]c(C(=O)c4cnn(-c5ccc(Oc6ccccc6F)cc5C)c4N)cc3cc2OCC(F)F)c1 [Example 5-1-414]", "measurement.label": "IC50", "result": "330 nM"}
{"compound": "Cc1cc(Oc2ccccc2F)cc(F)c1-n1ncc(C(=O)c2cc3cc(OCC(F)F)c(N4CCN(S(C)(=O)=O)CC4)cc3[nH]2)c1N [Example 4-23-006]", "measurement.label": "IC50", "result": "22 nM"}
{"compound": "Cc1cc(Oc2ccccc2F)ccc1-n1ncc(C(=O)c2cc3cc(OCC(F)F)c(N4C(=O)C(C)(C)NC4=S)cc3[nH]2)c1N [Example 4-23-037]", "measurement.label": "IC50", "result": "12 nM"}
{"compound": "Cc1cc(Oc2ccccc2F)ccc1-n1ncc(C(=O)c2cc3cc(OCC(F)F)c(C4CCN(S(C)(=O)=O)CC4)cc3[nH]2)c1N [Example 4-17-015]", "measurement.label": "IC50", "result": "14 nM"}
{"compound": "Cc1cc(Oc2ccccc2F)ccc1-n1ncc(C(=O)c2cc3cc(OC(F)F)c(N4CCCC4=O)cc3[nH]2)c1N [Example 4-21-006]", "measurement.label": "IC50", "result": "17 nM"}
{"compound": "COc1cc2cc(C(=O)c3cnn(-c4cnc(Oc5c(F)cccc5F)cc4C)c3N)[nH]c2cc1NS(=O)(=O)CC(=O)N1CCCC1 [Example 4-10-017]", "measurement.label": "IC50", "result": "32 nM"}
{"compound": "Cc1cc2cc(C(=O)c3cnn(-c4ccc(Oc5ccccc5F)cc4C)c3N)[nH]c2cc1N1C(=O)[C@@H]2C[C@@H](O)CN2C1=O [Example 5-1-459]", "measurement.label": "IC50", "result": "7.7 nM"}
{"compound": "Cc1cc(Oc2ccccc2F)ccc1-n1ncc(C(=O)c2cc3cc(OCC(F)F)c(NS(=O)(=O)C4CC4)cc3[nH]2)c1N [Example 4-24-020]", "measurement.label": "IC50", "result": "54 nM"}
{"compound": "Cc1cc(Oc2cc(F)ccc2F)cc(F)c1-n1ncc(C(=O)c2cc3cc(F)c(NS(=O)(=O)C4CC4)cc3[nH]2)c1N [Example 4-7-008]", "measurement.label": "IC50", "result": "490 nM"}
{"compound": "Cc1cc2cc(C(=O)c3cnn(-c4cnc(Oc5ccccc5F)cc4C)c3N)[nH]c2cc1NS(=O)(=O)c1cc(F)cc(F)c1 [Example 5-1-460]", "measurement.label": "IC50", "result": "770 nM"}
{"compound": "Cc1cc(Oc2ccccc2F)ncc1-n1ncc(C(=O)c2cc3cc(OCC(F)F)c(NS(=O)(=O)CCCF)cc3[nH]2)c1N [Example 4-24-029]", "measurement.label": "IC50", "result": "54 nM"}
{"compound": "Cc1cc2cc(C(=O)c3cnn(-c4cnc(Oc5ccccc5F)cc4C)c3N)[nH]c2cc1NS(=O)(=O)c1cc(Cl)ccn1 [Example 5-1-509]", "measurement.label": "IC50", "result": "840 nM"}
{"compound": "Cc1cc(Oc2ccccc2F)ncc1-n1ncc(C(=O)c2cc3cc(OC(F)F)c(N4CCCC4=O)cc3[nH]2)c1N [Example 4-25-014]", "measurement.label": "IC50", "result": "26 nM"}
{"compound": "Cc1cc(Oc2ccccc2F)ccc1-n1ncc(C(=O)c2cc3cc(F)c(NS(=O)(=O)NC(C)(C)CO)cc3[nH]2)c1N [Example 4-6-003]", "measurement.label": "IC50", "result": "88 nM"}
{"compound": "Cc1cc(Oc2ccccc2F)ncc1-n1ncc(C(=O)c2cc3cc(OC(F)F)c(NC4CCN(S(C)(=O)=O)CC4)cc3[nH]2)c1N [Example 4-23-026]", "measurement.label": "IC50", "result": "50 nM"}
{"compound": "Cc1cccc(S(=O)(=O)Nc2cc3[nH]c(C(=O)c4cnn(-c5cnc(Oc6c(F)cccc6F)cc5C)c4N)cc3cc2C)n1 [Example 5-1-531]", "measurement.label": "IC50", "result": "480 nM"}
{"compound": "Cc1cc(Oc2c(F)cccc2F)ncc1-n1ncc(C(=O)c2cc3cc(OC(F)F)c(NS(C)(=O)=O)cc3[nH]2)c1N [Example 4-24-011]", "measurement.label": "IC50", "result": "64 nM"}
{"compound": "CC(=O)N1CCC(c2cc3[nH]c(C(=O)c4cnn(-c5cnc(Oc6c(F)cccc6F)cc5C)c4N)cc3cc2OC(F)F)CC1 [Example 4-17-011]", "measurement.label": "IC50", "result": "43 nM"}
{"compound": "Cc1cc(Oc2c(F)cccc2Cl)ncc1-n1ncc(C(=O)c2cc3cc(Cl)c(NS(C)(=O)=O)cc3[nH]2)c1N [Example 4-2-089]", "measurement.label": "IC50", "result": "180 nM"}
{"compound": "Cc1cc(Oc2ccccc2F)cc(F)c1-n1ncc(C(=O)c2cc3cc(OC(F)F)c(N4CCCS4(=O)=O)cc3[nH]2)c1N [Example 4-25-003]", "measurement.label": "IC50", "result": "130 nM"}
{"compound": "Cc1cc(Oc2c(F)cccc2F)ncc1-n1ncc(C(=O)c2cc3cc(F)c(N(CCN4CCOCC4)S(C)(=O)=O)cc3[nH]2)c1N [Example 4-2-128]", "measurement.label": "IC50", "result": "8.6 nM"}
{"compound": "Cc1cc2cc(C(=O)c3cnn(-c4cnc(Oc5c(F)cccc5F)cc4C)c3N)[nH]c2cc1NS(=O)(=O)CC(=O)N1CCOCC1 [Example 4-10-010]", "measurement.label": "IC50", "result": "26 nM"}

###

- test.target: human Src enzyme (Homo sapiens)
- Construct: purchased Carna Biosciences, Inc. 08-173
- test.details: Src enzyme inhibitory activity (time-resolved fluorometry, biotinylated peptide phosphorylation)
- Format: biochemical
- measurement.setup: read-out: SRC_IC50
pIC50: −log10 of the molar value.
# pIC50 >= 8 gives class 1, anything below gives class 0

{"molecule": "Cc1cc(Oc2ccccc2F)ccc1-n1ncc(C(=O)c2cc3cc(N4CCOCC4)c(-n4c(C)cc(=O)[nH]c4=O)cc3[nH]2)c1N [Example 5-1-116]", "assigned.label": "class 1"}
{"molecule": "Cc1cc(Oc2ccccc2F)ccc1-n1ncc(C(=O)c2cc3cc(F)c(N4C(=O)[C@@H]5C[C@H](NC(=O)OCC6c7ccccc7-c7ccccc76)CN5C4=O)cc3[nH]2)c1N [Example 5-1-265]", "assigned.label": "class 0"}
{"molecule": "Cc1cc(Oc2ccccc2F)ccc1-n1ncc(C(=O)c2cc3cc(OCC(F)F)c(N4C(=O)OC[C@@H]4Cc4ccccc4)cc3[nH]2)c1N [Example 5-1-245]", "assigned.label": "class 0"}
{"molecule": "Cc1cc(-n2ncc(C(=O)c3cc4cc(OC5CCN(C(C)C)CC5)c(-c5cnn(C)c5)cc4[nH]3)c2N)ccc1Oc1ccccc1F [Example 5-1-236]", "assigned.label": "class 0"}

Source of measurements: patent US10479780B2
